method_notes: Degradation of the active stereoisomer S,S at 25° C. and 65% R.H.
Assay type: physicochemical
run_parameters: 360 days
reported_property: percentage of the active S,S stereoisomer remaining (%)
Respond with the bare value in %.

The recorded percentage of the active S,S stereoisomer remaining for entry C[S+](CCC(N)C(=O)[O-])C[C@H]1O[C@@H](n2cnc3c(N)ncnc32)[C@H](O)[C@@H]1O.C[S+](CCC(N)C(=O)[O-])C[C@H]1O[C@@H](n2cnc3c(N)ncnc32)[C@H](O)[C@@H]1O.O=S(=O)(O)O.O=S(=O)([O-])[O-].[Mg+2] (some centres unmarked) equals 92.6

The recorded percentage of the active S,S stereoisomer remaining for entry C[S+](CCC(N)C(=O)[O-])C[C@H]1O[C@@H](n2cnc3c(N)ncnc32)[C@H](O)[C@@H]1O.C[S+](CCC(N)C(=O)[O-])C[C@H]1O[C@@H](n2cnc3c(N)ncnc32)[C@H](O)[C@@H]1O.O=S(=O)(O)O.[Cl-].[Cl-].[Mg+2] (some centres unmarked) equals 90.6
